Data credit: ChEMBL document CHEMBL1201862

system: NCI/ADR-RES; experiment: NCI tumour cell line growth inhibition, 48 h
The source made the active and inactive calls. No stated cut-off is given here; in the data, active = GI50 up to about 1.1 µM and inactive = higher.
Test Readout: GI50

Below, 3 compounds whose answers are already recorded.
1) ON[C@H]1C[C@@H](n2cnc3c(NC4CC4)ncnc32)[C@H](O)[C@@H]1O
> 100 µM (inactive)
2) C[n+]1cn(-c2nc3ccccc3nc2[N-]S(=O)(=O)c2ccccc2)c2ccccc21
> 100 µM (inactive)
3) CN1CCOC1(C)CO (stereo not drawn)
> 100 µM (inactive)

Prompt: Give its GI50 value. Item: `O=C1/C(=C/c2cccc([N+](=O)[O-])c2)N=C(c2ccccc2)N1c1nc2ccc(Sc3ccccc3)cc2[nH]1`
Completion: 29.3 µM (inactive)

Prompt: Give its GI50 value. Item: `NCCN/C(=N\c1ccccc1)Nc1ccccc1`
Completion: > 100 µM (inactive)

Prompt: Give its GI50 value. Item: `O=C(c1ccccc1)c1c(-c2ccccc2)n(-c2ccccc2)[nH]c(=O)c1=O`
Completion: 62.4 µM (inactive)

Prompt: Give its GI50 value. Item: `c1ccc2c(c1)/C(=N\NC1=NCCN1)c1nc3ccccc3nc1-2`
Completion: 5.85 µM (inactive)

Prompt: Give its GI50 value. Item: `C[C@@H]1CCC([C@@H](C)[C@H]2CC[C@H]3[C@@H]4CC[C@H]5C[C@@H](O)CC[C@]5(C)[C@H]4CC[C@]23C)=NC1`
Completion: 8.53 µM (inactive)
